System: MS2 coat protein
Assay: apparent KD of MS2 coat protein; designed switch direction (-1 OFF switch, 1 ON switch): 1; higher = weaker reporter binding
Settings: Eterna round: R95; input ligand: microRNA oligo, concentration not stated
Assign class by apparent KD of MS2 coat protein: not lower than 40 nM means YES; lower than 40 nM means NO.

record_sequence="AGUCCAGCCUGAGCUGGACAAAAGCAUGUACAUGAGGAUCACCCAUGUUCAUGUGCAAGCUUUUUGCUCGUCUUAAA [Zipper 52 - 4] (puzzle: Sensor for hsa-mir-208a)" category=NO
record_sequence="GGAGAGAGAGCGCAGGAUAUUCAAGGAGAGACAUGAGGAUCACCCAUGUAAGAGAGAGAGGAGAGGGAGAAGGGUGAGAGAGAGG [Altered State 2-12 - Jieux - Same State 2] (puzzle: Same State 2)" category=NO
record_sequence="GGUCCAGCCUGAGCUGGACAAAAGCAUGUACAUGAGGAUCACCCAUGUCAUGUACAAGCUUUUUGCUCGUUUUAAAA [JL mod - D87 - 14] (puzzle: Sensor for hsa-mir-208a)" category=NO
record_sequence="GGCAGGUGCAGGCUUGCUUGCACCUGGAAACAUGAGGAUCACCCAUGUUUGGGACAAGCUUUGCUCCUCGUUUUGUC [JL ViennaUCT Isusreraar mod 3] (puzzle: Sensor for hsa-mir-208a)" category=YES
record_sequence="UGGAUCUAGGCUUGCCUGGGUCCAUGCUGACAUGAGGAUCACCCAUGUGCAUUCUAUAAGCUUUUUGUUUGUCAGCU (puzzle: Sensor for hsa-mir-208a)" category=NO
record_sequence="UAUAAACAUGAGGAUCACCCAUGUAAUAAUAUGGGAGGAUAUCAGAAUUUAUUUAUUUAAUGAGAAGGCCUAAUAU [Mat - Same State 1 - Mod of Eli - D67] (puzzle: Same State 1)" category=YES

====

Test system: MS2 coat protein
Experiment: apparent KD of MS2 coat protein; higher = weaker reporter binding
Settings: Eterna round: R107; input ligand: theophylline 2 mM
Entries annotated with measured apparent KD of MS2 coat protein
measurement_label: apparent KD of MS2 coat protein (nM)

record_sequence="AAUAUAAUAUAAAUAAUAAUAAUAUCUGAUACCAGACUCUCAUGUGUCCCUUGGCAGCAGUAACAUGAGGAUCACCCAUGUAAUA [JR_Nu_SSTheophyA_Sub027]" quantitative_result=16.2
record_sequence="UAAACAUGAGGAUCACCCAUGUUGGAUGAAGGAGCGACCAGAGGGUCAGGUAGGUCGCAUCACAUGAGGAUCACCCAUGUCAUUU [DOUBLE!!! :-D #12]" quantitative_result=147
record_sequence="AGUACAUGAGGAUCACCCAUGUACCAUGAUACCAGACAUGAAAAUGUCCCUUGGCAGCGUGGGUGAGGCAUCCGAAAGGAUGCCC [#05 SameState-TheophyllineA]" quantitative_result=30.5
record_sequence="GGGCCCGGGCGCGAGCCCGGGCCCAUUGAUACCAGUGAUAUAUAGCGCCCUUGGCAGCGAAUCCUAACAUGAGGAUCACCCAUGU [5.I]" quantitative_result=53.2

====

Test system: MS2 coat protein
Assay: apparent KD of MS2 coat protein; higher = weaker reporter binding
Details: Eterna round: R107; input ligand: theophylline 20 uM
Entries annotated with measured apparent KD of MS2 coat protein
measurement_label: apparent KD of MS2 coat protein (nM)

record_sequence="CGGUCGGUCGGUCGGUGAUUAUGGGAUGAAGGAGCGUGGGAAGCUACAGGUAGGUCGCAUCCGAAACAUGAGGAUCACCCAUGUU [#21 Same State - Arginine A]" unit_info=nM quantitative_result=26.8
record_sequence="CAUGGGUGGGUGCUGCCACCCAUUGGUGAUACCAGCAUCGAAAGAUGCCCUUGGCAGCACCAACAUGAGGAUCACCCAUGUAAUA [(M)'-(T)'-(M)''-(T1)-(T2)-(M1)-(M2)_Design4]" unit_info=nM quantitative_result=145
record_sequence=GGGUACAUCGCGGCCGCCACUCGUGUAAAUACAUGAGGAUCACCCAUGUCGAUGGAGACAUCGGAGAGGACCGGGUGAUGUACCG unit_info=nM quantitative_result=114
record_sequence="GGGCGACAUGAGGAUCACCCAUGUGUCGAUACCAGUAUGAAUUUCUACCCUUGGCAGCGACGACACGGUUAUUUGUGCACUUCGA [theeternabot_sameState_MS2_Theo_A_5]" unit_info=nM quantitative_result=114
record_sequence="AGCUCAGAGAGUGAUACCAGACUACAUGAGGAUCACCCAUGUUACUUUUAAAUAUCAUGAGUCCCUUGGCAGCACAAGAAGAGCA [JR_ExcTheophyB_Sub016]" unit_info=nM quantitative_result=117
record_sequence="UAUAUAGAAGGAUGUCAUAUAGAUGCAGAAGGAGCGUAGGAAACUACAGGUAGGUCGCUGAGGUACAUGAGGAUCACCCAUGUAG [SSArg A #17 Slice of Pi]" unit_info=nM quantitative_result=54
record_sequence="AGUCGAAACUGAAGGAGCGAGAUGACAACAUUGGGUCUAACAUGAGGAUCACCCAUGUAAUCUCAGGUAGGUCGCAGUAACAAAA [Exclusion Arginine B GF 16]" unit_info=nM quantitative_result=165
record_sequence="GGGCUGUGACCAGGAAAUGGUCACAGCCCACGAGGACCGGUACGGCCGCCACUCGAAAGUACAUGAGGAUCACCCAUGUCGGUGG [#1 Same State - Tryptophan A Attempt #8 (HarryS)]" unit_info=nM quantitative_result=30.6
record_sequence="UUCAAAGGGAACGGUGCUGGUGACAGAGAUACCAGCGCGGUAACGCGCCCUUGGCAGCUCAGAACAUGAGGAUCACCCAUGUAAU [Exclusion Theophylline A GF23]" unit_info=nM quantitative_result=20.7
record_sequence="UAACAUGAGGAUCACCCAUGUAUAGUCGAUACCAGCUCAAGGAAGAGCCCUUGGCAGCGACACUGCCAAGCAUGGGUCAUGGCAG [(Ms2)-(Theo)-(T)'-(M)'-(T)''_Design5]" unit_info=nM quantitative_result=31.9
record_sequence="AUCGUACCUGAUGAUACCAGCAUGUGCUCGUAACAUGAGGAUCACCCAUGUGAUCAGUAAUGCCCUUGGCAGCAUGAUCGGUACA [Same State - Theophylline B (Freestyle 17)]" unit_info=nM quantitative_result=46.9
record_sequence="UAAUGCAGGUCGGCCGCCACUACACACAUGAGGAUCACCCAUGUAGUUACUGGGUGAAGUGGCAGUAGGACCGGGACCUGCAUAC [Brourdmod04]" unit_info=nM quantitative_result=578
record_sequence="UAUAUAUAGGGAAGGAGCGGGAACAUGAGGAUCACCCAUGUACAUGAGGAUCACCCAUGUACCCAGGUAGGUCGCCCAUAUAUAU [Exclusion - Arginine B]" unit_info=nM quantitative_result=227
record_sequence="GCUGCAGCUACGGCCGCCACUGUUACGUGAGACAUGAGGAUCACCCAUGUUGAUGUUUUACGGUAUAGGACCGGGUAGUUGUAGU [E 1.0]" unit_info=nM quantitative_result=11.8
record_sequence="CGAAAGCACAUGGGUUGCUUUCGACUGGAAGGAGCGAGCGAAAGCUCAGGUAGGUCGCCAGAAACAUGAGGAUCACCCAUGUAAU [(A)''-(M)'-(A)'(Arg1)-(Arg2)-(M1)-(M2)_Design10]" unit_info=nM quantitative_result=27.4
record_sequence="AGUGCUACGUGUAAUCAAAGAGAACCAGAUACCAGAUUAGCAUACAUCCCUUGGCAGCUGCAUACAUGAGGAUCACCCAUGUCAG [theeternabot_exclusion_MS2_Theo_A_31]" unit_info=nM quantitative_result=38.4
record_sequence="ACGUAAAGCAGAAGGAGCGUCUUCAAUUUACAUGAGGAUCACCCAUGUUUUGUGAUCAUAUGACAGGUAGGUCGCUGAAGUACGA [JR_SSArginiB_Sub002]" unit_info=nM quantitative_result=152

Data origin: the supplement of paper PMC9170038
